// provenance: patent EP2567959B1

target: human full-length recombinant PKC βII (Homo sapiens, UniProt P05771); construct: Active human full-length recombinant PKC βII; purchased Invitrogen GmbH, Darmstadt, Germany; experiment: Determination of PKC βII inhibition (Caliper mobility-shift kinase assay, phosphorylation of fluorescein peptide substrate); type: biochemical; conditions: final compound concentration 1.14 µM (±0.15 µM); 60 min incubation at 32 °C
Sequence (P05771 1-673 isoform P05771-2): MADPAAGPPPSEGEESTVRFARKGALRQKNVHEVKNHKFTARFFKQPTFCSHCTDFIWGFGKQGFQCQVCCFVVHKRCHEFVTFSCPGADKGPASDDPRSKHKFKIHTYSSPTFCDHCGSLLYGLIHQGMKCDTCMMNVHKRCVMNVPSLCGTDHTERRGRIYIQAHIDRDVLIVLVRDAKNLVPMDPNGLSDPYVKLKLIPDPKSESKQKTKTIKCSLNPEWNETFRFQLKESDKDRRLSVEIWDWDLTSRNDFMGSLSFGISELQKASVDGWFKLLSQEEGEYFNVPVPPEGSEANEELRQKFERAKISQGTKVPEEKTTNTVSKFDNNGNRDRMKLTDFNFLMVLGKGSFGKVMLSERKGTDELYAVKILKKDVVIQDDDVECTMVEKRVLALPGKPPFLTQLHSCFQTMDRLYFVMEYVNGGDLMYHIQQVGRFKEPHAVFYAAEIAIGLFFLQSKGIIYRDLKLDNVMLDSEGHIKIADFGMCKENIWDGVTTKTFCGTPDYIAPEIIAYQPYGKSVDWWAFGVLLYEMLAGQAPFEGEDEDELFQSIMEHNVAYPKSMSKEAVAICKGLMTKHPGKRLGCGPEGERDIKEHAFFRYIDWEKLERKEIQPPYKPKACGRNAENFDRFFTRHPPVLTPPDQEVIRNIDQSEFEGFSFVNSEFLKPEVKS
EXPERIMENTAL READOUT: inhibition at 1.14 µM
Write the numeric value and follow it with the unit.

1. CN(C)C(=O)c1cccc(/C=C/c2n[nH]c3nc(-c4ccc(O)cc4)cc(C(=O)N4CCNCC4(C)C)c23)c1 ... 98%

Query block: Could you tell me which inhibition at 1.14 µM is on file for "CN(C)C(=O)N1CCN(C(=O)c2cc(-c3ccc(O)cc3)nc3[nH]nc(/C=C/c4ccccc4)c23)CC1" ?
Result block: 27%

Query block: // same read-out, input: "CC(C)(C)c1ccc(/C=C/c2n[nH]c3nc(-c4ccc(O)cc4)cc(C(=O)N4CCNCC4)c23)cc1"
Result block: 95%

Query block: // same read-out, input: "O=C(c1cc(-c2ccc(O)cc2)nc2[nH]nc(/C=C/c3ccc(Cl)cc3)c12)N1CCNCC1"
Result block: 86%

Query block: // same read-out, input: "O=C(c1cc(-c2ccc(O)cc2)nc2[nH]nc(/C=C/c3cccc(C(F)(F)F)c3)c12)N1CCNCC1"
Result block: 97%

Query block: // same read-out, input: "CN(C)c1cccc(/C=C/c2n[nH]c3nc(-c4ccc(O)cc4)cc(C(=O)N4CCNCC4)c23)c1"
Result block: 99%

Query block: // same read-out, input: "O=C(c1cc(-c2ccc(O)cc2)nc2[nH]nc(/C=C/c3ccc(Oc4ccccc4)cc3)c12)N1CCNCC1"
Result block: 97%

* * *

target: human full-length recombinant PKC βII (Homo sapiens); construct: Active human full-length recombinant PKC βII; purchased Invitrogen GmbH, Darmstadt, Germany; assay: Determination of PKC βII inhibition (Caliper mobility-shift kinase assay, phosphorylation of fluorescein peptide substrate); format: biochemical; details: final compound concentration 1.14 µM (±0.15 µM); 60 min incubation at 32 °C
Listed molecules paired with reported inhibition at 1.14 µM
Entry rule: numbers only, all in %.

1) COCCC(=O)N1CCN(C(=O)c2cc(-c3ccc(O)cc3)nc3[nH]nc(/C=C/c4ccccc4)c23)CC1 ... 89
2) Cc1ccc(C)c(/C=C/c2n[nH]c3nc(-c4ccc(O)cc4)cc(C(=O)N4CCNCC4)c23)c1 ... 92
3) CCCC[C@H]1CNCCN1C(=O)c1cc(-c2ccc(O)cc2)nc2[nH]nc(/C=C/c3ccccc3)c12 ... 57
4) O=C(c1cc(-c2ccc(O)cc2)nc2[nH]nc(/C=C/c3ccc(OC(F)(F)F)cc3)c12)N1CCNCC1 ... 89
5) O=C(c1cc(-c2ccc(O)cc2)nc2[nH]nc(/C=C/c3ccccc3)c12)N1CCN(C2CC2)CC1 ... 19

Query block: Could you tell me which inhibition at 1.14 µM is on file for "O=C(c1cc(-c2ccc(O)cc2)nc2[nH]nc(/C=C/c3cccc(N4CCCC4=O)c3)c12)N1CCNCC1" ?
Result block: 115

Query block: // same read-out, input: "Cc1ccc(/C=C/c2n[nH]c3nc(-c4ccc(O)cc4)cc(C(=O)N4CCNCC4)c23)cc1"
Result block: 98

Query block: // same read-out, input: "CN(C)Cc1cccc(/C=C/c2n[nH]c3nc(-c4ccc(O)cc4)cc(C(=O)N4CCNCC4)c23)c1"
Result block: 100

Query block: // same read-out, input: "O=C(c1cc(-c2ccc(O)cc2)nc2[nH]nc(/C=C/c3ccccc3C(F)(F)F)c12)N1CCNCC1"
Result block: 60

Query block: // same read-out, input: "O=C(c1cc(-c2ccc(O)cc2)nc2[nH]nc(/C=C/c3ccc4c(c3)CCO4)c12)N1CCNCC1"
Result block: 99

Query block: // same read-out, input: "CN1Cc2ccc(/C=C/c3n[nH]c4nc(-c5ccc(O)cc5)cc(C(=O)N5CCNCC5)c34)cc2C1=O"
Result block: 98

Query block: // same read-out, input: "O=C(c1cc(-c2ccc(O)cc2)nc2[nH]nc(/C=C/c3ccc(OC(F)F)cc3)c12)N1CCNCC1"
Result block: 97

Query block: // same read-out, input: "COc1cc(-c2cc(C(=O)N3CCNCC3)c3c(/C=C/c4ccccc4)n[nH]c3n2)ccc1O"
Result block: 55

Query block: // same read-out, input: "CC(C)C[C@H]1CN(C(=O)c2cc(-c3ccc(O)cc3)nc3[nH]nc(/C=C/c4ccccc4)c23)CCN1"
Result block: 85

Query block: // same read-out, input: "O=C(c1cc(-c2ccc(O)cc2)nc2[nH]nc(/C=C/c3ccccc3F)c12)N1CCNCC1"
Result block: 99
